system-tested: T1, recombinant human NGF protein (human, UniProt P01138 122-241)
T1 construct: Bought protein; also called nerve growth factor; biotin-labeled human NGF
T1 sequence (P01138 122-241 limits assumed): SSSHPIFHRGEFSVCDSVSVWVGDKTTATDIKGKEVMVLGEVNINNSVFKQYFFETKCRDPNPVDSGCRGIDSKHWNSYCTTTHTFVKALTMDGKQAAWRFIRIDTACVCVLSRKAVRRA
method-description: ELISA, human NGF coated
pEC50: −log10 of the molar value.
Measured pEC50 by item
measurement-name: pEC50

binder: humanized anti-NGF antibody 138E12-04 (antibody, V domains shown) VH: QVQLQESGPGLVKPSETLSLTCTVSGFSLTGYGVNWIRQPPGKGLEWLGMIWFDASTDYNSALKSRLTISKDNSKSQVSLKLSSVTAADTAVYYCAREGYYYGTTYYFDYWGQGTTVTVSS VL: DIQMTQSPSSLSASVGDRVTITCRASQDISNYLNWYQQKPGKAPKLLIYYTSRLHSGVPSRFSGSGSGTDYTLTISSLQPEDFATYFCQQGNTLPRTFGGGTKVEIK
result: 10.24
--
binder: humanized anti-NGF antibody 43E5-02 (antibody, V domains shown, Humanized antibody expressed in CHO cells) VH: QVQLVQSGAEVKKPGASVKVSCKASGYTFTDYEMHWVRQAPGQGLEWIGAIDPETGGTAYNQKFKGRATLTADKSISTAYMELSRLRSDDTAVYYCRRGANLNHYGNDEGSYWGQGTLVTVSS VL: DVVMTQSPLSLPVTLGQPASISCKSSQSLLHSVGKTYLNWLQQRPGQSPRRLIYLVSKLDSGVPDRFSGSGSGTDFTLKISRVEAEDVGVYFCWQGTHLPQTFGGGTKVEIK
result: 9.65
--
binder: humanized anti-NGF antibody 43E5-06 (antibody, V domains shown, Humanized antibody expressed in CHO cells) VH: QVQLVQSGAEVKKPGSSVKVSCKASGYTFTDYEMHWVRQAPGQGLEWIGAIDPETGGTAYNQKFKGRATLTADKSTSTAYMELSSLRSEDTAVYYCRRGANLNHYGNDEGSYWGQGTLVTVSS VL: DVVMTQSPLSLPVTLGQPASISCKSSQSLLHSVGKTYLNWLQQRPGQSPRRLIYLVSKLDSGVPDRFSGSGSGTDFTLKISRVEAEDVGVYFCWQGTHLPQTFGGGTKVEIK
result: 9.72
